Where these numbers come from: ChEMBL document CHEMBL4476867

measuredOn: UniProtKB P13497
Sequence (P13497 whole entry): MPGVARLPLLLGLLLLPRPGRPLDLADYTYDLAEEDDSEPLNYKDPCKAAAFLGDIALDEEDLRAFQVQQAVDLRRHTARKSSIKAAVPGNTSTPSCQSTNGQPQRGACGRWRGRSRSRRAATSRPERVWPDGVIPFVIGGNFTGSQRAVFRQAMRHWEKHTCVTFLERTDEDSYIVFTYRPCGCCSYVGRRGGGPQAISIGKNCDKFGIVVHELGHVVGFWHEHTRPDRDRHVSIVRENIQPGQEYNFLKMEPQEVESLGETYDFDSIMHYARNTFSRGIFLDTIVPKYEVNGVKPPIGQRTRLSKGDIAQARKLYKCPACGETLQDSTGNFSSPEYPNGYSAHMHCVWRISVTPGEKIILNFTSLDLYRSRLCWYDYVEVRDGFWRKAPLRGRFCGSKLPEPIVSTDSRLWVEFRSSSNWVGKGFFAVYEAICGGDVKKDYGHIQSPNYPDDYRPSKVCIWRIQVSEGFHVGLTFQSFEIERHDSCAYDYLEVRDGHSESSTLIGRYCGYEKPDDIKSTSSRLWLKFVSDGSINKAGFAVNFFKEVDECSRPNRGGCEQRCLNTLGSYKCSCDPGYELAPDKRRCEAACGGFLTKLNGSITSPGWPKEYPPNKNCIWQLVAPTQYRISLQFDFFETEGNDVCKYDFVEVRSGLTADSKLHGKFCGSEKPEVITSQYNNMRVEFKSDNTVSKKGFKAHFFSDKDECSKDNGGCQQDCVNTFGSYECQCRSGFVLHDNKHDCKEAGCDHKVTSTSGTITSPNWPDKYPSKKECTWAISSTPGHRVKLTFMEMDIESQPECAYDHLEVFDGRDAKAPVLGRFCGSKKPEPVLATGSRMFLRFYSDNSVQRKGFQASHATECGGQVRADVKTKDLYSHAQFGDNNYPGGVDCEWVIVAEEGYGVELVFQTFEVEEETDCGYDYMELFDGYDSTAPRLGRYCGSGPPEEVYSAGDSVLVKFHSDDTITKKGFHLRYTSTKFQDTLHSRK
testMethodNotes: Inhibition of C-terminal FLAG-6x-His epitope tagged and N-terminal human RAGE signal sequence tagged human BMP1 (23 to 721 amino acids) expressed in CHO-E1 cells pre-incubated for 10 mins before promyostatin peptide substrate addition and measured after 30 mins using 50 nM BMP1 by FRET based assay
Type: cell-based
Consider the following molecules and their measured IC50 readings.
parameter: IC50

[[record]]
structurestring = "CCCCC[C@@H](C(=O)NCNC(=O)c1ccc(-c2ccc(C)c(C(=O)O)c2)o1)[C@@H](CC)N(O)C=O"
measuredon = "UniProtKB P13497"
parameter = "IC50"
reportedresult = "< 200 nM"

[[record]]
structurestring = "CCCCC[C@H](CN(O)C=O)C(=O)NCNC(=O)c1ccc(-c2cccc(OCC)c2)o1"
measuredon = "UniProtKB P13497"
parameter = "IC50"
reportedresult = "< 200 nM"

[[record]]
structurestring = "CCCCC[C@H](CN(O)C=O)C(=O)NCNC(=O)c1ccc(-c2ccccc2C(=O)OC)o1"
measuredon = "UniProtKB P13497"
parameter = "IC50"
reportedresult = "< 200 nM"


----------
measuredOn: Bone morphogenetic protein 1 (Homo sapiens)
Sequence (P13497 whole entry): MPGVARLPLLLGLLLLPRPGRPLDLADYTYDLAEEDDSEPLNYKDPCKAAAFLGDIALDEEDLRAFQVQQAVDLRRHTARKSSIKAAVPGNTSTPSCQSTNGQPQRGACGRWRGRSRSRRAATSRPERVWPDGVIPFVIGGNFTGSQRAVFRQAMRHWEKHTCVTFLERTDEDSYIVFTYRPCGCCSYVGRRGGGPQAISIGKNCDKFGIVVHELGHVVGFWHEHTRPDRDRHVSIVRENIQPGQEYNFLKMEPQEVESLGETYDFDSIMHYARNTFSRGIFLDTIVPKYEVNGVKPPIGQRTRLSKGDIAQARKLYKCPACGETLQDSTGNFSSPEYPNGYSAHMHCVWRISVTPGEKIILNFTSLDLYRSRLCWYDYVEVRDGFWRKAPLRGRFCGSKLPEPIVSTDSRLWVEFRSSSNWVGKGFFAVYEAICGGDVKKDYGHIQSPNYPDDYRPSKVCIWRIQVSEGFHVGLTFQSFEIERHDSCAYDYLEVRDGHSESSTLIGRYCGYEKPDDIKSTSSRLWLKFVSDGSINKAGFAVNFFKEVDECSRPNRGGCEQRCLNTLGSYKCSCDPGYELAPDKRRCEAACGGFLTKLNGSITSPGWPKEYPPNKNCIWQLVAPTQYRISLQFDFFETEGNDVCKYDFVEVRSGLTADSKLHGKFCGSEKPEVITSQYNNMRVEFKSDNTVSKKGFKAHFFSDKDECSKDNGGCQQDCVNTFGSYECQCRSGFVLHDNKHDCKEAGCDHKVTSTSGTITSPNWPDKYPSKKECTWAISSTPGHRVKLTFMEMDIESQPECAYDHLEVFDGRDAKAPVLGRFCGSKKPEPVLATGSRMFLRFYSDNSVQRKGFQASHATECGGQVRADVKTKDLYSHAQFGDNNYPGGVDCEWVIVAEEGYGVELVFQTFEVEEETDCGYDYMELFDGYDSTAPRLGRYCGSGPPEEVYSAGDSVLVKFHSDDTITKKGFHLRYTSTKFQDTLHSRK
testMethodNotes: Inhibition of C-terminal FLAG-6x-His epitope tagged and N-terminal human RAGE signal sequence tagged human BMP1 (23 to 721 amino acids) expressed in CHO-E1 cells pre-incubated for 10 mins before promyostatin peptide substrate addition and measured after 30 mins using 50 nM BMP1 by FRET based assay
Type: cell-based
Measured IC50 by item
parameter: IC50

[[record]]
compound = "CCCCC[C@H](CN(O)C=O)C(=O)NCNC(=O)c1ccc(-c2cccc(N(C)C)c2)o1"
reportedresult = "< 200 nM"

[[record]]
compound = "CCCCC[C@H](CN(O)C=O)C(=O)NCNC(=O)c1ccc(-c2cccc(OC(F)(F)F)c2)o1"
reportedresult = "< 200 nM"

[[record]]
compound = "CCCCC[C@@H](C(=O)NCNC(=O)c1ccc(-c2ccc(CC(=O)O)c(OCC)c2)o1)[C@@H](CC)N(O)C=O"
reportedresult = "< 200 nM"

[[record]]
compound = "CCCCC[C@@H](C(=O)NCNC(=O)c1ccc(-c2ccc(C(=O)N[C@@H](CCC(=O)O)C(=O)O)cc2)o1)[C@@H](CC)N(O)C=O"
reportedresult = "< 200 nM"

[[record]]
compound = "CCCCC[C@@H](C(=O)NCNC(=O)c1ccc(-c2cc(OCC(N)=O)cc(C(=O)O)c2)o1)[C@@H](CC)N(O)C=O"
reportedresult = "< 200 nM"

[[record]]
compound = "CCCCC[C@H](CN(O)C=O)C(=O)NCNC(=O)c1ccc(-c2ccc(C(=O)O)cc2)o1"
reportedresult = "< 200 nM"

[[record]]
compound = "CCCCC[C@H](CN(O)C=O)C(=O)NCNC(=O)c1ccc(-c2ccc(F)c(C(=O)OC)c2)o1"
reportedresult = "< 200 nM"

[[record]]
compound = "CCCCC[C@@H](C(=O)NCNC(=O)c1ccc(-c2cc(OCC)cc(C(=O)NCP(=O)(O)O)c2)o1)[C@@H](CC)N(O)C=O"
reportedresult = "< 200 nM"

[[record]]
compound = "CCCCC[C@H](CN(O)C=O)C(=O)NCNC(=O)c1ccc(-c2cccc(C(C)C(=O)O)c2)o1 (stereo partly specified)"
reportedresult = "< 200 nM"

[[record]]
compound = "CCCCC[C@@H](C(=O)NCNC(=O)c1ccc(-c2ccc(C(=O)O)c(C(=O)O)c2)o1)[C@@H](CC)N(O)C=O"
reportedresult = "< 200 nM"

[[record]]
compound = "CCCCC[C@@H](C(=O)NCNC(=O)c1ccc(-c2cccc(C(C)(C)C(=O)O)c2)o1)[C@@H](CC)N(O)C=O"
reportedresult = "< 200 nM"

[[record]]
compound = "CCCCC[C@@H](C(=O)NCNC(=O)c1ccc(-c2ccc(C(=O)O)c(CC(=O)O)c2)o1)[C@@H](CC)N(O)C=O"
reportedresult = "< 200 nM"

[[record]]
compound = "CCCCC[C@H](CN(O)C=O)C(=O)NCNC(=O)c1ccc(-c2cccc(OC(F)F)c2)o1"
reportedresult = "< 200 nM"

[[record]]
compound = "CCOc1cc(-c2ccc(C(=O)NCNC(=O)[C@H](CCc3ccccc3)[C@@H](CC)N(O)C=O)o2)ccc1C(=O)N(CC(=O)O)CC(=O)O"
reportedresult = "< 200 nM"

[[record]]
compound = "CCCCC[C@H](CN(O)C=O)C(=O)NCNC(=O)c1ccc(-c2cccc(OCCN3CCCC3)c2)o1"
reportedresult = "< 200 nM"

[[record]]
compound = "CCCCC[C@H](CN(O)C=O)C(=O)NCNC(=O)c1ccc(-c2ccc(F)c(C(=O)O)c2)o1"
reportedresult = "< 200 nM"


----------
measuredOn: Bone morphogenetic protein 1 (Homo sapiens, UniProt P13497)
testMethodNotes: Inhibition of C-terminal FLAG-6x-His epitope tagged and N-terminal human RAGE signal sequence tagged human BMP1 (23 to 721 amino acids) expressed in CHO-E1 cells pre-incubated for 10 mins before promyostatin peptide substrate addition and measured after 60 mins using 0.5 nM BMP1 by FRET based assay
Format: cell-based
pIC50: −log10 of the molar value.
parameter: pIC50

[[record]]
structurestring = "CCCCC[C@H](CN(O)C=O)C(=O)NCNC(=O)c1ccc(-c2cccc(C(=O)OC(C)(C)C)c2)o1"
parameter = "pIC50"
reportedresult = "> 6.90"

[[record]]
structurestring = "CCCCC[C@@H](C(=O)NCNC(=O)c1ccc(-c2cc(OCC)cc(C(=O)N[C@H](CC(=O)O)C(=O)O)c2)o1)[C@@H](CC)N(O)C=O"
parameter = "pIC50"
reportedresult = "> 6.90"

[[record]]
structurestring = "CS(=O)(=O)c1cccc(-c2ccc(C(=O)NCNC(=O)[C@H](CCc3ccccc3)CN(O)C=O)o2)c1"
parameter = "pIC50"
reportedresult = "> 6.90"

